- Test system: LOX IMVI melanoma
- assay.overview: NCI-60 one-dose screen, 48 h (100 = growth as untreated, 0 = no growth, -100 = all killed)
- condition.info: 10 µM unless noted
This is part of a sample that, as a whole, favours compounds with a hit. Of some 83,000 tested, about 20% had one in any assay. The source made the active and inactive calls. How the source made its calls: active means growth percent below 10; inactive means the rest.
Reported growth values for a set of compounds
property.name: growth

molecule=CC1(C)CC(=O)c2c(ccc(C(=O)C[C@H](N)CO)c2N)O1 measured="-61.7% (active)"
molecule=CC(C)n1nc(C#Cc2cccc(NC(=O)c3cccc(C(F)(F)F)c3)c2)c2c(N)ncnc21 measured="-91.8% (active)"
molecule=CCCN1CCN(c2ccc3nc(-c4ccc5nc(-c6ccc(OCC)c(OCC)c6)[nH]c5c4)[nH]c3c2)CC1 measured="-84.3% (active)"
molecule=Cc1cccc(-c2cc(O)c(C(=O)N3CCOCC3)s2)c1 measured="33.2% (inactive)"
molecule=CCn1c(Sc2nnc(NC(C)=O)s2)nc2c1c(=O)n(C)c(=O)n2C measured="90% (inactive)"

Values compiled from PubChem BioAssay (NCI).
